Ref: patent US20240034729A9

system.tested: hP2X3 (human purinergic P2X receptor subtype 3) (Homo sapiens (Human), UniProt P56373)
Sequence (P56373 whole entry): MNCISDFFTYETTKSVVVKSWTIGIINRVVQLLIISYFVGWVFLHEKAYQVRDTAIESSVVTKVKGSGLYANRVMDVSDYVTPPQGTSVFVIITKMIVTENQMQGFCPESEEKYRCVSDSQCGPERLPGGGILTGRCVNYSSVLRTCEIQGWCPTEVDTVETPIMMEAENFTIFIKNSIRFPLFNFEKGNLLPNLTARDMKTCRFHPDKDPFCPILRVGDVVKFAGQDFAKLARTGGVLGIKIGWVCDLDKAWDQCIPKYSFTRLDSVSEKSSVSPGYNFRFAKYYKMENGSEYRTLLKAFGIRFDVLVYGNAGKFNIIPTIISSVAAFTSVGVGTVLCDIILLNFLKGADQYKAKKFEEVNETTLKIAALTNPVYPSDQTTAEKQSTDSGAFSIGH
experimental.protocol: FLIPR calcium assay, hP2X3 expressed in HEK293 cells
Assay type: cell-based
condition: read-out: P2X3 IC50
pIC50: −log10 of the molar value.
property.measured: pIC50

As a guide, the following entries are already answered.
INSERT INTO results (compound, observed_result) VALUES
  ('COC(=O)N1CCO[C@@H](Cc2c(-c3c(F)cc(NC(=O)CC(C)C(=O)O)cc3F)nc3cc(C)ccn23)C1 (stereo partly shown)', '7.30 to 8.00'),
  ('COC(=O)N1CCO[C@@H](Cc2c(-c3c(F)cc(-n4cnc(C(F)(F)F)c4)cc3F)nc3cc(C)ccn23)C1', '6.70 to 7.30'),
  ('COC(=O)N1CCO[C@@H](Cc2c(-c3c(F)cc(NC4CCC(=O)CC4)cc3F)nc3cc(C)ccn23)C1', '7.30 to 8.00'),
  ('CC(=O)N1CCO[C@@H](Cc2c(-c3c(F)cc(-n4ccnc4)cc3F)nc3cc(C)ccn23)C1', '> 8.00'),
  ('COC(=O)N1CCO[C@@H](Cc2c(-c3c(F)cc(-c4ccn(C(F)F)n4)cc3F)nc3cc(C)ccn23)C1', '> 8.00');

Can you look up pIC50 on hP2X3 (human purinergic P2X receptor subtype 3) (Homo sapiens (Human), UniProt P56373) for COC(=O)N1CCO[C@@H](Cc2c(-c3cc(F)c(S(N)(=O)=O)cc3Cl)nc3cc(Cl)ccn23)C1 ?
8.74

Same question, CNC(=O)c1ccnc(Cc2c(-c3c(F)cc(S(N)(=O)=O)cc3F)nc3cc(C)ccn23)c1 this time
7.89

* * *

System: Male SD rats
experimental.protocol: Two-bottle dysgeusia test (quinine water vs normal water)
Format: in vivo, rat
condition: 20 mg/kg, compared with the blank vehicle
property.measured: Ratio of quinine/water intake (in words)

INSERT INTO measurements (cpd_smiles, property_measured, observed_result) VALUES
  ('CC(=O)N1CCO[C@@H](Cc2c(-c3c(F)cc(-c4nnc[nH]4)cc3F)nc3cc(C)ccn23)C1', 'Ratio of quinine/water intake (in words)', 'almost unaffected'),
  ('CNC(=O)c1cc(F)c(-c2oc3cc(C)ccc3c2C[C@H]2CN(C(=O)OC)CCO2)c(F)c1', 'Ratio of quinine/water intake (in words)', 'almost unaffected'),
  ('COC(=O)N1CCO[C@@H](Cc2c(-c3c(F)cc(-c4ncc[nH]4)cc3F)nc3cc(C)ccn23)C1', 'Ratio of quinine/water intake (in words)', 'almost unaffected');

* * *

Below is a list of entries, each paired with its recorded pIC50 value.
system.tested: hP2X3 (human purinergic P2X receptor subtype 3) (Homo sapiens (Human))
experimental.protocol: FLIPR calcium assay, hP2X3 expressed in HEK293 cells
Type: cell-based
condition: HEK293 cells expressing hP2X3, agonist BZ-ATP 2.5 μM; class symbols; read-out: P2X3 IC50
pIC50: −log10 of the molar value.

// below: answered compounds
INSERT INTO results (cpd_smiles, observed_result) VALUES
  ('COC(=O)N1CCO[C@@H](Cc2c(-c3c(F)cc(-n4cnc(C5(C(=O)O)CC5)c4)cc3F)nc3cc(C)ccn23)C1', '5.30 to 6.70'),
  ('COC(=O)N1CCO[C@@H](Cc2c(-c3c(F)cc(N4CCN(C)CC4=O)cc3F)nc3cc(C)ccn23)C1', '5.30 to 6.70');

We now examine a further compound.
Any idea what pIC50 was measured for CCC(=O)N1CCO[C@@H](Cc2c(-c3c(F)cc(-c4nc(C#N)co4)cc3F)nc3cc(C)ccn23)C1 ?
5.30 to 6.70
